Provide the reported protein stability index of each item.
B1: KRT13 (parent)
chain: KTIEELRDKILTATIENNRVILEI

Variants of: B1
Test: protein stability index of a GFP-peptide fusion (GPS, HEK-293T) (PSI 1-6); higher = more stable;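 further: lentivirally expressed fusions sorted by FACS into six bins by GFP to DsRed ratio, PSI derived from sequencing read proportions per bin multiplied by bin number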
Conditions: c terminus: a fixed tail appended
# respond with the number and nothing more

So what's the measured protein stability index for this one? KTIDELRDKILTATIENNRVILEI [E4D]
3.39

So what's the measured protein stability index for this one? KTIEELRDKILTATIENNRVILES [I24S]
1.92

So what's the measured protein stability index for this one? KTIEERRDKILTATIENNRVILEI [L6R]
2.56

So what's the measured protein stability index for this one? KTIEELRDKILTATIENNRVILEM [I24M]
1.9

So what's the measured protein stability index for this one? KTIEELRDKILTATIEDNRVILEI [N17D]
2.84

So what's the measured protein stability index for this one? KTIEELRDKILTTTIENNRVILEI [A13T]
1.92

So what's the measured protein stability index for this one? KTIEELRDKILTATIENNRVILSI [E23S]
2.78

So what's the measured protein stability index for this one? KDIEELRDKILTATIENNRVILEI [T2D]
2.88

So what's the measured protein stability index for this one? KTIEILRDKILTATIENNRVILEI [E5I]
3.5

So what's the measured protein stability index for this one? KTIEELRDKQLTATIENNRVILEI [I10Q]
1.54

So what's the measured protein stability index for this one? KTIEELRDKILTATIENNRVILET [I24T]
1.73

So what's the measured protein stability index for this one? KTIEELRDKILTATGENNRVILEI [I15G]
2.77

So what's the measured protein stability index for this one? KTIEKLRDKILTATIENNRVILEI [E5K]
2.95

So what's the measured protein stability index for this one? KTIEELRDKILTATIENNRVPLEI [I21P]
2.44

So what's the measured protein stability index for this one? KTIEELIDKILTATIENNRVILEI [R7I]
2.6

So what's the measured protein stability index for this one? KTIEELRDKILTATIENNRVKLEI [I21K]
1.74

So what's the measured protein stability index for this one? KTIEELRDKIATATIENNRVILEI [L11A]
1.3

So what's the measured protein stability index for this one? KTIEELRDKILTATAENNRVILEI [I15A]
1.66

So what's the measured protein stability index for this one? KTIEELRQKILTATIENNRVILEI [D8Q]
1.67

So what's the measured protein stability index for this one? KTIEELRDKVLTATIENNRVILEI [I10V]
1.75

So what's the measured protein stability index for this one? KTIEELRDKILTCTIENNRVILEI [A13C]
2.5

So what's the measured protein stability index for this one? KTIEELRDKILTATIEGNRVILEI [N17G]
3.5
